Test system: Escherichia coli
assay text: Antibacterial activity against Escherichia coli NCIM 2688 after 8 hrs by serial dilution method
Format: functional, organism-based
condition: NCIM 2688, 8 h
Square brackets hold non-standard residues; d marks the D form. Peptide text beside a SMILES is read from it. Pro(cis-4-guanidino) = NC(N)=N[C@@H]1CN[C@H](C(=O)O)C1; βAla = NCCC(=O)O
Documented MIC across a set of molecules

# molecule, target desc, MIC (µM)
records = [
    ("CC(=O)N[C@@H](Cc1ccccc1)C(=O)NCC(=O)N[C@H]1C[C@@H](C(=O)N[C@@H](CCCCN)C(=O)N[C@@H](CCCCN)C(=O)N[C@@H](CCCNC(=N)N)C(=O)N[C@H]2C[C@@H](C(=O)N[C@@H](CCC(N)=O)C(=O)N[C@H]3C[C@@H](C(=O)N[C@@H](CCCNC(=N)N)C(=O)N[C@H]4C[C@@H](C(=O)NCCC(N)=O)N(CCCNC(=N)N)C4)N(CCCNC(=N)N)C3)N(CCCNC(=N)N)C2)N(CCCNC(=N)N)C1", "Escherichia coli", 1.12),
    ("CC(=O)N[C@@H](Cc1ccccc1)C(=O)NCC(=O)N1C[C@@H](NC(=N)N)C[C@H]1C(=O)N[C@@H](CCCCN)C(=O)N[C@@H](CCCCN)C(=O)N[C@@H](CCCNC(=N)N)C(=O)N1C[C@@H](NC(=N)N)C[C@H]1C(=O)N[C@@H](CCC(N)=O)C(=O)N1C[C@@H](NC(=N)N)C[C@H]1C(=O)N[C@@H](CCCNC(=N)N)C(=O)N1C[C@@H](NC(=N)N)C[C@H]1C(=O)NCCC(N)=O (Ac-FG[Pro(cis-4-guanidino)]KKR[Pro(cis-4-guanidino)]Q[Pro(cis-4-guanidino)]R[Pro(cis-4-guanidino)][βAla]-NH2)", "Escherichia coli", 27.7),
    ("CC(=O)N[C@@H](Cc1ccccc1)C(=O)NCC(=O)N[C@@H](CCCNC(=N)N)C(=O)N[C@@H](CCCCN)C(=O)N[C@@H](CCCCN)C(=O)N1C[C@@H](NC(=N)N)C[C@H]1C(=O)N[C@@H](CCCNC(=N)N)C(=O)N[C@@H](CCC(N)=O)C(=O)N[C@@H](CCCNC(=N)N)C(=O)N[C@@H](CCCNC(=N)N)C(=O)N[C@@H](CCCNC(=N)N)C(=O)NCCC(N)=O (Ac-FGRKK[Pro(cis-4-guanidino)]RQRRR[βAla]-NH2)", "Escherichia coli", 13.5),
]
